All figures here come from ChEMBL document CHEMBL3994622.

TGI by entry:
- Test system: MDA-MB-435
- ASSAY_SUMMARY: Growth inhibition of human MDA-MB-435 cells incubated for 48 hrs by sulforhodamine B assay
- Assay type: functional
- PROTOCOL_CONDITIONS: MDA-MB-435, 48 h
PROPERTY: TGI (µM)

> print(dat)
                              record.smiles  comparator  recorded.value
1  COc1cc2cc(Oc3ccc(NC(=O)Nc4ccc(Cl)c(C(F)(F)F)c4)cc3)c(C)nc2cc1OC           =            4.71
2  CNC(=O)c1cc(Oc2ccc(NC(=O)Nc3ccc(Cl)c(C(F)(F)F)c3)cc2)ccn1           =            5.01
3  COc1cc2cc(Oc3ccc(NC(=O)Nc4ccc(Cl)c(Cl)c4)cc3)c(C)nc2cc1OC           =            16.8
4  COc1cc2cc(Oc3ccc(NC(=O)Nc4cccc(C(F)(F)F)c4)cc3)c(C)nc2cc1OC           =            10.1
5  COc1cc2cc(Oc3ccc(NC(=O)Nc4cc(C(F)(F)F)cc(C(F)(F)F)c4)cc3)c(C)nc2cc1OC           =            4.28
6  Cc1nc2cc(O)c(O)cc2cc1Oc1ccc(NC(=O)Nc2ccc(Cl)c(Cl)c2)cc1           >            32.5
